Assay: Single dose, randomized fed vs. fasted study of the effect of food on bioavailability (pharmacokinetics)
Assay type: in vivo, healthy subjects
Settings: human, serum, po, 600 mg, single oral dose 600 mg; fasted; balanced data; read-out: AUC(l) (mean)

{"compound": "CC(C)(C)NC(=O)N[C@H](C(=O)N1C[C@H]2[C@@H]([C@H]1C(=O)NC(CC1CCC1)C(=O)C(N)=O)C2(C)C)C(C)(C)C (mixture of isomers) [SCH 503034]", "AUC [ng·h/mL]": 1630}

---

Experiment: Single dose, randomized fed vs. fasted study of the effect of food on bioavailability (pharmacokinetics)
Assay type: in vivo, healthy subjects
Details: human, serum, po, 600 mg, single oral dose 600 mg; fed (non fat diet); balanced data; read-out: AUC(tf) (mean)
reportedEndpoint: AUC (ng·h/mL)

{"compound": "CC(C)(C)NC(=O)N[C@H](C(=O)N1C[C@H]2[C@@H]([C@H]1C(=O)NC(CC1CCC1)C(=O)C(N)=O)C2(C)C)C(C)(C)C (mixture of isomers) [SCH 503034]", "quantityUnit": "ng·h/mL", "result": 3040}
